# Test system: MiaPaCa-2 cells
# Protocol: Cytotoxicity assay in MiaPaCa-2 (XTT, 72 h)
# Format: cell-based
# Setup conditions: XTT, read-out: Cell cytotoxicity assay IC50 in range
pIC50: −log10 of the molar value.
pIC50: recorded values
Measured metric: pIC50

Compound	Study target	Reported
O=C(NCC1=NOC(COc2cc(Cl)cnc2-c2ccc(F)nc2)C1)c1ccc2nccn2c1 (single isomer, unassigned) [Example 14b]	MiaPaCa-2 cells	> 7.30
O=C(NCC1=NOC(COc2cc(Cl)cnc2-c2cccnc2)C1)c1ccc2nccn2c1 (single isomer, unassigned) [Example 13b]	MiaPaCa-2 cells	> 7.30
Cc1cnc(-c2ccc(F)nc2)c(OCC2CC(CNC(=O)c3ccc4nccn4c3)=NO2)c1 (single isomer, unassigned) [Example 11a]	MiaPaCa-2 cells	< 6.60
O=C(NCC1=NOC(COc2cccnc2-c2cccnc2)C1)c1ccc2nccn2c1 (single isomer, unassigned) [Example 7a]	MiaPaCa-2 cells	> 7.30
O=C(NCC1=NOC(COc2cc(Cl)cnc2-c2cccnc2)C1)c1ccc2nccn2c1 (single isomer, unassigned) [Example 13a]	MiaPaCa-2 cells	< 6.60
O=C(NCC1=NOC(COc2cccnc2-c2ccc(Cl)nc2)C1)c1ccc2nccn2c1 (single isomer, unassigned) [Example 8b]	MiaPaCa-2 cells	6.60 to 7.30
